Biological target: CD73 (Homo sapiens (Human), UniProt P21589)
Sequence (P21589 27-574): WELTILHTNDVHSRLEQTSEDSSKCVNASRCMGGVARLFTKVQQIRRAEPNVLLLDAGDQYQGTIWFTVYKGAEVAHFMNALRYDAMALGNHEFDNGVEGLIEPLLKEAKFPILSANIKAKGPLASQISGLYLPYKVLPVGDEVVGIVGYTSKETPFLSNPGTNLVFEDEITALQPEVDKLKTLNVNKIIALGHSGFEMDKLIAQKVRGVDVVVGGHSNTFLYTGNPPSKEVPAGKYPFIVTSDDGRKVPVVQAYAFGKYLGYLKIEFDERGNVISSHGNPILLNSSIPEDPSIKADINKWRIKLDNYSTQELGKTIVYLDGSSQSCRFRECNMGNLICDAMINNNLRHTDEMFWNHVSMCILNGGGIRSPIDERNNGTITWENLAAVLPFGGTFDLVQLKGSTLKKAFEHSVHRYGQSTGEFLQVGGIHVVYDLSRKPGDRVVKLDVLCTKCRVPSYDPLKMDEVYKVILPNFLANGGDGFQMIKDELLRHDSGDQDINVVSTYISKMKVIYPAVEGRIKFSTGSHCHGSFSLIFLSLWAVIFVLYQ
Assay type: biochemical
Settings: 1 mM NaH2PO4 in enzyme buffer, CD73 0.3 nM, AMP 15 uM
pIC50: −log10 of the molar value.
The entries below are paired with their reported pIC50.
parameter: pIC50

>>> quantitative_result("O=c1[nH]cc(-c2cc([C@H]3C[C@@H]3c3ccc4c(cnn4CC(F)(F)F)c3)c3ncnn3n2)c(=O)[nH]1")
9.74
>>> quantitative_result("O=c1[nH]cc(-c2cc([C@H]3C[C@@H]3c3ccccn3)c3nccn3n2)c(=O)[nH]1 [Example 159]")
8.75
>>> quantitative_result("CCOC(=O)OC1CN(c2cc(-c3c[nH]c(=O)[nH]c3=O)nn3ccnc23)CC1(F)F (stereo not drawn)")
8.81
>>> quantitative_result("O=c1[nH]cc(-c2cc([C@H]3C[C@@H]3c3cnn(C(F)F)c3)c3ncc(F)n3n2)c(=O)[nH]1 (racemic) [Example 370]")
8.40
>>> quantitative_result("O=c1[nH]cc(-c2cc(N3CC4(CC(C(F)F)C4)C3)c3nccn3n2)c(=O)[nH]1")
6.71
>>> quantitative_result("O=c1[nH]cc(-c2cc(OCC(F)(F)F)c3nccn3n2)c(=O)[nH]1")
7.31
>>> quantitative_result("O=C(OCC(F)(F)F)O[C@H]1CN(c2cc(-c3c[nH]c(=O)[nH]c3=O)nn3ccnc23)CC1(F)F")
9.26
>>> quantitative_result("O=c1[nH]cc(-c2cc([C@H]3C[C@@H]3c3ccc4cnn(CC(F)F)c4c3)c3nccn3n2)c(=O)[nH]1 (racemic) [Example 123]")
9.16
>>> quantitative_result("COC(=O)c1cccc([C@H]2C[C@@H]2c2cc(-c3c[nH]c(=O)[nH]c3=O)nn3ccnc23)c1 (racemic)")
8.74
>>> quantitative_result("O=C1N(CC2(F)CC2)c2cc([C@H]3C[C@@H]3c3cc(-c4c[nH]c(=O)[nH]c4=O)nn4ccnc34)ccc2C12CC2 (racemic)")
8.77
>>> quantitative_result("O=c1[nH]cc(-c2cc([C@H]3C[C@@H]3c3ccc(C(F)(F)F)cc3)c3ncnn3n2)c(=O)[nH]1")
9.32
>>> quantitative_result("O=C(c1ccc([C@H]2C[C@@H]2c2cc(-c3c[nH]c(=O)[nH]c3=O)nn3ccnc23)cc1)N1CCC(F)(F)C1 (racemic)")
8.32
>>> quantitative_result("N#Cc1ccc(F)c([C@H]2C[C@@H]2c2cc(-c3c[nH]c(=O)[nH]c3=O)nn3ccnc23)c1 (racemic)")
8.46
>>> quantitative_result("O=C1N(CC(F)(F)C(F)F)c2cc([C@H]3C[C@@H]3c3cc(-c4c[nH]c(=O)[nH]c4=O)nn4ccnc34)ccc2C12CC2 (racemic)")
8.72
>>> quantitative_result("O=c1[nH]cc(-c2cc([C@H]3C[C@@H]3c3ccc4c(cnn4CC(F)(F)F)c3)c3ncc(F)n3n2)c(=O)[nH]1")
9.00
>>> quantitative_result("O=C(c1ccc([C@H]2C[C@@H]2c2cc(-c3c[nH]c(=O)[nH]c3=O)nn3ccnc23)cc1)N1CC(F)(F)C(F)(F)C1 (racemic)")
8.11
>>> quantitative_result("O=c1[nH]cc(-c2cc([C@H]3C[C@@H]3c3ccc(OC(F)F)cn3)c3nccn3n2)c(=O)[nH]1 [Example 137]")
8.89
>>> quantitative_result("O=c1[nH]cc(-c2cc(N3CC[C@@H](C(F)(F)F)C3)c3nccn3n2)c(=O)[nH]1")
8.44
>>> quantitative_result("O=C(c1ccc([C@H]2C[C@@H]2c2cc(-c3c[nH]c(=O)[nH]c3=O)nn3ccnc23)cc1)N1CCC1 (racemic)")
8.64
>>> quantitative_result("O=c1[nH]cc(-c2cc(N3CCC(CO)(CCl)C3)c3nccn3n2)c(=O)[nH]1 (stereo not drawn)")
7.71
>>> quantitative_result("O=c1[nH]cc(-c2cc(N3CC[C@@H](C(F)F)C3)c3nccn3n2)c(=O)[nH]1")
7.40
>>> quantitative_result("N#Cc1ccc([C@H]2C[C@@H]2c2cc(-c3c[nH]c(=O)[nH]c3=O)nn3c(F)cnc23)cn1 (racemic)")
8.55
>>> quantitative_result("O=c1[nH]cc(-c2cc([C@H]3C[C@@H]3c3ccc(F)cc3)c3nc(C4CC4)cn3n2)c(=O)[nH]1 (racemic)")
8.25
>>> quantitative_result("O=c1[nH]cc(-c2cc(N3C[C@H](Oc4ccc(OC(F)F)cn4)C(F)(F)C3)c3nccn3n2)c(=O)[nH]1")
9.05
>>> quantitative_result("O=c1[nH]cc(-c2cc([C@H]3C[C@@H]3c3cc4c(ccn4CC(F)(F)F)cn3)c3nccn3n2)c(=O)[nH]1 [Example 705]")
9.40
>>> quantitative_result("O=c1[nH]cc(-c2cc([C@H]3C[C@@H]3c3cnc(C(F)(F)F)nc3)c3nccn3n2)c(=O)[nH]1")
8.00
